Test: Solubility in cyclodextrin solutions (HPLC)
Details: 20% 2-hydroxypropyl-γ-cyclodextrin (HPGCD) in water, aqueous with cosolvent or surfactant or cyclodextrin, thermodynamic from solid, solubility, 20% HPGCD
measured-attribute: solubility (µg/mL)
Give the value in µg/mL but do not write µg/mL after it.

q: Fill in the blank: the reported solubility of COC(=O)[C@@H]1C[C@H](OC(C)=O)C(=O)[C@H]2[C@@]1(C)CC[C@H]1C(=O)O[C@H](c3ccoc3)C[C@]21C is ____.
a: 52.6

---

Assay: Solubility in cyclodextrin solutions (HPLC)
Settings: 20% 2-hydroxypropyl-β-cyclodextrin (HPBCD) in water, aqueous with cosolvent or surfactant or cyclodextrin, thermodynamic from solid, Concentration (solubility), 20% HPBCD; mean ± SD
measured-attribute: solubility
Returns: string containing the numeric result and its unit.

q: Fill in the blank: the reported solubility of COC(=O)[C@@H]1C[C@H](OC(C)=O)C(=O)[C@H]2[C@@]1(C)CC[C@H]1C(=O)O[C@H](c3ccoc3)C[C@]21C is ____.
a: 122 µg/mL
